Values compiled from paper PMC6496074.

Biological target: CaCYP51 Q474K (Candida albicans, UniProt P10613, Q474K)
Assay: CYP51 reconstitution assay
Conditions: mean ± SD, duplicate
Measurement kind: pIC50
Note on units: pIC50 is unitless, being -log10 of a concentration expressed in mol/L.

[[record]]
compound = "CC[C@@H]([C@H](C)O)n1ncn(-c2ccc(N3CCN(c4ccc(OC[C@@H]5CO[C@@](Cn6cncn6)(c6ccc(F)cc6F)C5)cc4)CC3)cc2)c1=O [Posaconazole, posaconazole]"
measurement_kind = "pIC50"
value_measured = 6.52


pIC50 for OC(Cn1cncn1)(Cn1cncn1)c1ccc(F)cc1F [Fluconazole, fluconazole] is 6.45

pIC50 for CCC(C)n1ncn(-c2ccc(N3CCN(c4ccc(OCC5COC(Cn6cncn6)(c6ccc(Cl)cc6Cl)O5)cc4)CC3)cc2)c1=O (stereo not drawn) [Itraconazole, itraconazole] is 6.61

====

In this section we review reported IC50 values for a set of molecules.
Target: CaCYP51 Y132H (Candida albicans, UniProt P10613, Y132H)
Experiment: CYP51 reconstitution assay
Settings: mean ± SD, duplicate
The answer is to be given in nM; state only the numeric part.

IC50 for CC[C@@H]([C@H](C)O)n1ncn(-c2ccc(N3CCN(c4ccc(OC[C@@H]5CO[C@@](Cn6cncn6)(c6ccc(F)cc6F)C5)cc4)CC3)cc2)c1=O [Posaconazole, posaconazole] is 195

IC50 for OC(Cn1cncn1)(Cn1cncn1)c1ccc(F)cc1F [Fluconazole, fluconazole] is 220

IC50 for CCC(C)n1ncn(-c2ccc(N3CCN(c4ccc(OCC5COC(Cn6cncn6)(c6ccc(Cl)cc6Cl)O5)cc4)CC3)cc2)c1=O (stereo not drawn) [Itraconazole, itraconazole] is 150

====

Test system: C. albicans SC5314 strain with CaCYP51 substitution D278N+G464S
Experiment: CLSI broth microdilution MIC
Assay type: cell-based, Candida albicans
Conditions: Candida albicans, SC5314, RPMI 1640, 24 h, 35°C, 50% reduction in growth
In this section we review reported MIC values for a set of compounds.

MIC for OC(Cn1cncn1)(Cn1cncn1)c1ccc(F)cc1F is 8 µg/mL

MIC for CCC(C)n1ncn(-c2ccc(N3CCN(c4ccc(OCC5COC(Cn6cncn6)(c6ccc(Cl)cc6Cl)O5)cc4)CC3)cc2)c1=O (stereo not shown) is 0.25 µg/mL

MIC for C[C@@H](c1ncncc1F)[C@](O)(Cn1cncn1)c1ccc(F)cc1F is 0.25 µg/mL

MIC for CC[C@@H]([C@H](C)O)n1ncn(-c2ccc(N3CCN(c4ccc(OC[C@@H]5CO[C@@](Cn6cncn6)(c6ccc(F)cc6F)C5)cc4)CC3)cc2)c1=O is ≤ 0.03 µg/mL

====

Biological target: CaCYP51 G464S (Candida albicans, UniProt P10613, G464S)
Construct: made in house; host or cells: E. coli DH5α (pCWori+)
Test: CYP51 reconstitution assay
Assay type: biochemical
Details: 0.25 h, 4 μM triazole, % of activity without triazole, read-out: Residual CYP51 activity (%) ± SD
Measurement kind: remaining activity at 4 µM
Report the figure along with its unit, number first.

Completed entries (count: 3):
[[record]]
molecule = "CC[C@@H]([C@H](C)O)n1ncn(-c2ccc(N3CCN(c4ccc(OC[C@@H]5CO[C@@](Cn6cncn6)(c6ccc(F)cc6F)C5)cc4)CC3)cc2)c1=O"
measurement_kind = "remaining activity at 4 µM"
value_measured = "0.54%"

[[record]]
molecule = "CCC(C)n1ncn(-c2ccc(N3CCN(c4ccc(OCC5COC(Cn6cncn6)(c6ccc(Cl)cc6Cl)O5)cc4)CC3)cc2)c1=O (stereo not shown)"
measurement_kind = "remaining activity at 4 µM"
value_measured = "0.54%"

[[record]]
molecule = "C[C@@H](c1ncncc1F)[C@](O)(Cn1cncn1)c1ccc(F)cc1F"
measurement_kind = "remaining activity at 4 µM"
value_measured = "0.1%"


Lab note: next molecule to report on.
remaining activity at 4 µM for OC(Cn1cncn1)(Cn1cncn1)c1ccc(F)cc1F is 3.05%

====

In this section we review reported IC50 values for a set of compounds.
Target: CaCYP51 F126V (Candida albicans, UniProt P10613, F126V)
Assay: CYP51 reconstitution assay
Conditions: mean ± SD, duplicate
The answer is to be given in nM; state only the numeric part.

Completed entries (count: 2):
[[record]]
compound = "CCC(C)n1ncn(-c2ccc(N3CCN(c4ccc(OCC5COC(Cn6cncn6)(c6ccc(Cl)cc6Cl)O5)cc4)CC3)cc2)c1=O (stereo not drawn)"
measurement_kind = "IC50"
value_measured = 206

[[record]]
compound = "CC[C@@H]([C@H](C)O)n1ncn(-c2ccc(N3CCN(c4ccc(OC[C@@H]5CO[C@@](Cn6cncn6)(c6ccc(F)cc6F)C5)cc4)CC3)cc2)c1=O"
measurement_kind = "IC50"
value_measured = 304


Lab note: next compound to report on.
IC50 for OC(Cn1cncn1)(Cn1cncn1)c1ccc(F)cc1F is 278

====

Target: CaCYP51 F145L (Candida albicans, UniProt P10613, F145L)
Test: CYP51 reconstitution assay
Conditions: mean ± SD, duplicate
Measurement kind: IC50 (nM)
The answer is to be given in nM; state only the numeric part.

Completed entries (count: 2):
[[record]]
molecule = "CCC(C)n1ncn(-c2ccc(N3CCN(c4ccc(OCC5COC(Cn6cncn6)(c6ccc(Cl)cc6Cl)O5)cc4)CC3)cc2)c1=O (stereo not drawn)"
target_entity = "CaCYP51 F145L (Candida albicans, UniProt P10613, F145L)"
value_measured = 300

[[record]]
molecule = "CC[C@@H]([C@H](C)O)n1ncn(-c2ccc(N3CCN(c4ccc(OC[C@@H]5CO[C@@](Cn6cncn6)(c6ccc(F)cc6F)C5)cc4)CC3)cc2)c1=O"
target_entity = "CaCYP51 F145L (Candida albicans, UniProt P10613, F145L)"
value_measured = 359


Lab note: next molecule to report on.
IC50 for OC(Cn1cncn1)(Cn1cncn1)c1ccc(F)cc1F is 450

====

In this section we review reported pIC50 values for a set of compounds.
Target: CaCYP51 Y118A (Candida albicans, UniProt P10613, Y118A)
Construct: made in house; host or cells: E. coli DH5α (pCWori+)
Assay: CYP51 reconstitution assay
Assay type: biochemical
Conditions: mean ± SD, duplicate
Note on units: pIC50 is unitless, being -log10 of a concentration expressed in mol/L.

[[record]]
compound = "CC[C@@H]([C@H](C)O)n1ncn(-c2ccc(N3CCN(c4ccc(OC[C@@H]5CO[C@@](Cn6cncn6)(c6ccc(F)cc6F)C5)cc4)CC3)cc2)c1=O [Posaconazole, posaconazole]"
value_measured = 6.69


pIC50 for OC(Cn1cncn1)(Cn1cncn1)c1ccc(F)cc1F [Fluconazole, fluconazole] is 6.71

pIC50 for CCC(C)n1ncn(-c2ccc(N3CCN(c4ccc(OCC5COC(Cn6cncn6)(c6ccc(Cl)cc6Cl)O5)cc4)CC3)cc2)c1=O (stereo not drawn) [Itraconazole, itraconazole] is 6.77

====

In this section we review reported pKd values for a set of molecules.
Target: CaCYP51 Y132H+K143R (Candida albicans, UniProt P10613, K143R/Y132H)
Assay: Azole ligand binding (type II difference spectra)
Conditions: 4 μM protein, 22°C, ± standard deviation, triplicate, read-out: dissociation constant (Kd)
Note on units: pKd is unitless, being -log10 of a concentration expressed in mol/L.

pKd for OC(Cn1cncn1)(Cn1cncn1)c1ccc(F)cc1F [Fluconazole, fluconazole] is 4.74

pKd for CC[C@@H]([C@H](C)O)n1ncn(-c2ccc(N3CCN(c4ccc(OC[C@@H]5CO[C@@](Cn6cncn6)(c6ccc(F)cc6F)C5)cc4)CC3)cc2)c1=O [Posaconazole, posaconazole] is 6.79

pKd for CCC(C)n1ncn(-c2ccc(N3CCN(c4ccc(OCC5COC(Cn6cncn6)(c6ccc(Cl)cc6Cl)O5)cc4)CC3)cc2)c1=O (stereo not drawn) [Itraconazole, itraconazole] is 6.41

====

Molecular target: CaCYP51 V456I (Candida albicans, UniProt P10613, V456I)
Assay: CYP51 reconstitution assay
Conditions: mean ± SD, duplicate
In this section we review reported IC50 values for a set of molecules.
The answer is to be given in nM; state only the numeric part.

Completed entries (count: 2):
[[record]]
molecule = "OC(Cn1cncn1)(Cn1cncn1)c1ccc(F)cc1F [Fluconazole, fluconazole]"
measurement_kind = "IC50"
unit_of_measurement = "nM"
value_measured = 483

[[record]]
molecule = "CCC(C)n1ncn(-c2ccc(N3CCN(c4ccc(OCC5COC(Cn6cncn6)(c6ccc(Cl)cc6Cl)O5)cc4)CC3)cc2)c1=O (stereo not drawn) [Itraconazole, itraconazole]"
measurement_kind = "IC50"
unit_of_measurement = "nM"
value_measured = 603


Lab note: next molecule to report on.
// returns IC50 for CC[C@@H]([C@H](C)O)n1ncn(-c2ccc(N3CCN(c4ccc(OC[C@@H]5CO[C@@](Cn6cncn6)(c6ccc(F)cc6F)C5)cc4)CC3)cc2)c1=O [Posaconazole, posaconazole] with CaCYP51 V456I (Candida albicans, UniProt P10613, V456I); value = 602
